# Tested on: NCI-H2009
# protocol description: relative viability (nuclei count vs DMSO), 5 days (fraction); higher = more cells survive
# condition parameters: first compound 0.02 µM
metric: relative viability

INSERT INTO assay_data (compound, measurement_target, obs_value) VALUES
  ('CN1CCN(CCOc2cc(OC3CCOCC3)c3c(Nc4c(Cl)ccc5c4OCO5)ncnc3c2)CC1 [Saracatinib] + Cc1cc(Nc2cc(N3CCN(C)CC3)nc(Sc3ccc(NC(=O)C4CC4)cc3)n2)n[nH]1 [Tozasertib] (partner 0.1 µM)', 'NCI-H2009', 0.655),
  ('CCNC(=O)c1noc(-c2cc(C(C)C)c(O)cc2O)c1-c1ccc(CN2CCOCC2)cc1 [Luminespib] + CS(=O)(=O)CCNCc1ccc(-c2ccc3ncnc(Nc4ccc(OCc5cccc(F)c5)c(Cl)c4)c3c2)o1 [Lapatinib] (partner 2 µM)', 'NCI-H2009', 0.63),
  ('CCNC(=O)c1noc(-c2cc(C(C)C)c(O)cc2O)c1-c1ccc(CN2CCOCC2)cc1 [Luminespib] + CC1(C)CCC(c2ccc(Cl)cc2)=C(CN2CCN(c3ccc(C(=O)NS(=O)(=O)c4ccc(N[C@H](CCN5CCOCC5)CSc5ccccc5)c(S(=O)(=O)C(F)(F)F)c4)cc3)CC2)C1 [Navitoclax] (partner 0.5 µM)', 'NCI-H2009', 1.21);

Attention now shifts to the item below.
## Task Under NCI-H2009, report relative viability for CN1CCN(CCOc2cc(OC3CCOCC3)c3c(Nc4c(Cl)ccc5c4OCO5)ncnc3c2)CC1 [Saracatinib] + O=C(c1cc(Cc2n[nH]c(=O)c3ccccc23)ccc1F)N1CCN(C(=O)C2CC2)CC1 [Olaparib] (partner 8 µM)
## Result 0.709

----------
# System: PC-3 [JPC-3]
# protocol description: relative viability (nuclei count vs DMSO), 5 days (fraction); higher = more cells survive
# condition parameters: first compound 0.06325 µM
Measured relative viability, listed per entry.
Reply briefly: the number, and no unit.

INSERT INTO assay_data (compound, metric, obs_value) VALUES
  ('CCNC(=O)c1noc(-c2cc(C(C)C)c(O)cc2O)c1-c1ccc(CN2CCOCC2)cc1 [Luminespib] + Cc1nc(Nc2ncc(C(=O)Nc3c(C)cccc3Cl)s2)cc(N2CCN(CCO)CC2)n1 [Dasatinib] (partner 0.075 µM)', 'relative viability', 0.863);

Attention now shifts to the item below.
## Task Give relative viability for the following compound: CCNC(=O)c1noc(-c2cc(C(C)C)c(O)cc2O)c1-c1ccc(CN2CCOCC2)cc1 [Luminespib] + COc1cc2c(Oc3ccc(NC(=O)C4(C(=O)Nc5ccc(F)cc5)CC4)cc3F)ccnc2cc1OCCCN1CCOCC1 [Foretinib] (partner 0.25 µM)
## Result 0.728

----------
Measured relative viability, listed per entry.
# System: NCI-H1437
# protocol description: relative viability (nuclei count vs DMSO), 5 days (fraction); higher = more cells survive
# condition parameters: first compound 0.2 µM
Reply briefly: the number, and no unit.

The examples below pair each entry with its known result.
INSERT INTO measurements (molecule, obs_value) VALUES
  ('CN1CCN(CCOc2cc(OC3CCOCC3)c3c(Nc4c(Cl)ccc5c4OCO5)ncnc3c2)CC1 [Saracatinib] + CC(=O)c1c(C)c2cnc(Nc3ccc(N4CCNCC4)cn3)nc2n(C2CCCC2)c1=O [Palbociclib] (partner 0.5 µM)', 0.337),
  ('CN1CCN(CCOc2cc(OC3CCOCC3)c3c(Nc4c(Cl)ccc5c4OCO5)ncnc3c2)CC1 [Saracatinib] + Cc1nc(Nc2ncc(C(=O)Nc3c(C)cccc3Cl)s2)cc(N2CCN(CCO)CC2)n1 [Dasatinib] (partner 0.075 µM)', 0.283);

## Task Give relative viability for the following molecule: CCNC(=O)c1noc(-c2cc(C(C)C)c(O)cc2O)c1-c1ccc(CN2CCOCC2)cc1 [Luminespib] + Cc1cc(Nc2cc(N3CCN(C)CC3)nc(Sc3ccc(NC(=O)C4CC4)cc3)n2)n[nH]1 [Tozasertib] (partner 0.1 µM)
## Result 0.238

## Task Give relative viability for the following molecule: CCNC(=O)c1noc(-c2cc(C(C)C)c(O)cc2O)c1-c1ccc(CN2CCOCC2)cc1 [Luminespib] + COc1cc2c(Oc3ccc(NC(=O)C4(C(=O)Nc5ccc(F)cc5)CC4)cc3F)ccnc2cc1OCCCN1CCOCC1 [Foretinib] (partner 0.25 µM)
## Result 0.526

----------
# Test system: NCI-H596
# protocol description: relative viability (nuclei count vs DMSO), 5 days (fraction); higher = more cells survive
# condition parameters: first compound 0.6325 µM
metric: relative viability

The examples below pair each entry with its known result.
INSERT INTO results (compound, obs_value) VALUES
  ('Cc1csc(=NC2CCCCC2)n1/N=C/c1ccc(O)c(O)c1O [MIM1] + N=C(N)NC(=N)NCCc1ccccc1 [Phenformin] (partner 250 µM)', 0.829),
  ('Cc1csc(=NC2CCCCC2)n1/N=C/c1ccc(O)c(O)c1O [MIM1] + O=C(c1cc(Cc2n[nH]c(=O)c3ccccc23)ccc1F)N1CCN(C(=O)C2CC2)CC1 [Olaparib] (partner 8 µM)', 0.73),
  ('Cc1csc(=NC2CCCCC2)n1/N=C/c1ccc(O)c(O)c1O [MIM1] + C[C@]1(O)C[C@@H](c2nc(-c3ccc4ccc(-c5ccccc5)nc4c3)c3c(N)nccn32)C1 [Linsitinib] (partner 1 µM)', 0.989),
  ('CN1CCN(CCOc2cc(OC3CCOCC3)c3c(Nc4c(Cl)ccc5c4OCO5)ncnc3c2)CC1 [Saracatinib] + Nc1nc2[nH]cc(CCc3ccc(C(=O)N[C@@H](CCC(=O)O)C(=O)O)cc3)c2c(=O)[nH]1 [Pemetrexed] (partner 0.2 µM)', 0.471),
  ('Cc1csc(=NC2CCCCC2)n1/N=C/c1ccc(O)c(O)c1O [MIM1] + COc1cccc2cc(-c3nc([C@H]4CC[C@H](C(=O)O)CC4)n4ncnc(N)c34)[nH]c12 [OSI-027] (partner 0.5 µM)', 0.757);

Attention now shifts to the item below.
## Task Give relative viability for the following compound: Cc1csc(=NC2CCCCC2)n1/N=C/c1ccc(O)c(O)c1O [MIM1] + Cc1cc(Nc2cc(N3CCN(C)CC3)nc(Sc3ccc(NC(=O)C4CC4)cc3)n2)n[nH]1 [Tozasertib] (partner 0.1 µM)
## Result 0.931

----------
Measured relative viability, listed per entry.
# Test system: SW 1573
# protocol description: relative viability (nuclei count vs DMSO), 5 days (fraction); higher = more cells survive
# condition parameters: first compound 0.02 µM
Reply briefly: the number, and no unit.

INSERT INTO assay_data (molecule, measurement_target, metric, obs_value) VALUES
  ('CCNC(=O)c1noc(-c2cc(C(C)C)c(O)cc2O)c1-c1ccc(CN2CCOCC2)cc1 [Luminespib] + CS(=O)(=O)N1CCN(Cc2cc3nc(-c4cccc5[nH]ncc45)nc(N4CCOCC4)c3s2)CC1 [Pictilisib] (partner 1 µM)', 'SW 1573', 'relative viability', 0.428),
  ('CN1CCN(CCOc2cc(OC3CCOCC3)c3c(Nc4c(Cl)ccc5c4OCO5)ncnc3c2)CC1 [Saracatinib] + Nc1ncn([C@H]2C[C@H](O)[C@@H](CO)O2)c(=O)n1 [Decitabine] (partner 2 µM)', 'SW 1573', 'relative viability', 0.512),
  ('CCNC(=O)c1noc(-c2cc(C(C)C)c(O)cc2O)c1-c1ccc(CN2CCOCC2)cc1 [Luminespib] + Nc1ncn([C@H]2C[C@H](O)[C@@H](CO)O2)c(=O)n1 [Decitabine] (partner 2 µM)', 'SW 1573', 'relative viability', 0.159),
  ('CCNC(=O)c1noc(-c2cc(C(C)C)c(O)cc2O)c1-c1ccc(CN2CCOCC2)cc1 [Luminespib] + CC(C)C[C@H](NC(=O)[C@H](Cc1ccccc1)NC(=O)c1cnccn1)B(O)O [Bortezomib] (partner 0.002 µM)', 'SW 1573', 'relative viability', 0.96),
  ('CN1CCN(CCOc2cc(OC3CCOCC3)c3c(Nc4c(Cl)ccc5c4OCO5)ncnc3c2)CC1 [Saracatinib] + C[C@@H](Oc1cc(-c2cnn(C3CCNCC3)c2)cnc1N)c1c(Cl)ccc(F)c1Cl [Crizotinib] (partner 1 µM)', 'SW 1573', 'relative viability', 0.744),
  ('CCNC(=O)c1noc(-c2cc(C(C)C)c(O)cc2O)c1-c1ccc(CN2CCOCC2)cc1 [Luminespib] + COc1cc2c(Oc3ccc(NC(=O)C4(C(=O)Nc5ccc(F)cc5)CC4)cc3F)ccnc2cc1OCCCN1CCOCC1 [Foretinib] (partner 0.25 µM)', 'SW 1573', 'relative viability', 0.521);

## Task Give relative viability for the following molecule: CCNC(=O)c1noc(-c2cc(C(C)C)c(O)cc2O)c1-c1ccc(CN2CCOCC2)cc1 [Luminespib] + C[C@@H](Oc1cc(-c2cnn(C3CCNCC3)c2)cnc1N)c1c(Cl)ccc(F)c1Cl [Crizotinib] (partner 1 µM)
## Result 0.757

## Task Give relative viability for the following molecule: CCNC(=O)c1noc(-c2cc(C(C)C)c(O)cc2O)c1-c1ccc(CN2CCOCC2)cc1 [Luminespib] + Nc1nc2[nH]cc(CCc3ccc(C(=O)N[C@@H](CCC(=O)O)C(=O)O)cc3)c2c(=O)[nH]1 [Pemetrexed] (partner 0.2 µM)
## Result 0.189

## Task Give relative viability for the following molecule: CN1CCN(CCOc2cc(OC3CCOCC3)c3c(Nc4c(Cl)ccc5c4OCO5)ncnc3c2)CC1 [Saracatinib] + CC(C)C[C@H](NC(=O)[C@H](Cc1ccccc1)NC(=O)c1cnccn1)B(O)O [Bortezomib] (partner 0.002 µM)
## Result 0.997
